Biological target: T1, IKKβ(1-669) EE, 6xHis tag removed (human, UniProt O14920 1-669, S177E | S181E)
T1 sequence (looked up): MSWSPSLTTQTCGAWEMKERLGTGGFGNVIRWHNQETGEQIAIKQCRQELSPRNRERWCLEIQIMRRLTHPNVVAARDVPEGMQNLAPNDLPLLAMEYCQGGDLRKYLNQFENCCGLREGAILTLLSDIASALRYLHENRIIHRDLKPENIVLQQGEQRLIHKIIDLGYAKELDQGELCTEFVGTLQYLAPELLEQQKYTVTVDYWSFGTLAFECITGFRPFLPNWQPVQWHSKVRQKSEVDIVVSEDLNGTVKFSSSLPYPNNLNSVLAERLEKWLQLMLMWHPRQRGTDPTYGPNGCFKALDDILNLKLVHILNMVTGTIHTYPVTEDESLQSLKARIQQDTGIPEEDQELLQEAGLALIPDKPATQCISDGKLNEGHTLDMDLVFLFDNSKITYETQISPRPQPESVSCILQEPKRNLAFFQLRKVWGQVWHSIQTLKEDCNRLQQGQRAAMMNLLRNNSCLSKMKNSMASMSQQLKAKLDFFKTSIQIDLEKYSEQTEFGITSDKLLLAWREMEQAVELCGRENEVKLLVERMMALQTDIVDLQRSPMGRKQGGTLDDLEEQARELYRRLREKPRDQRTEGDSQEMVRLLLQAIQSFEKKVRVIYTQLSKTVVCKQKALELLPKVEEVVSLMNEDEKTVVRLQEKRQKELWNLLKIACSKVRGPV
Test: ITC
Where no end group is shown, it is not given here.
Consider the following binders and their measured Kd readings.

Binder: EFTEDELPYDDCVFGGQRLTL [IκBα pep (synthetic, residues 297-317 of IκBα)]
Measurement Unit: µM
Kd: 40

Binder: EFTEDELPYDDLVFGGQRLTL-NH2 [C308L IκBα pep (synthetic)]
Measurement Unit: µM
Kd: 2.4

Hello, the source for this data is paper PMC11371828, in case you need it.
